studyTarget: HLA-A*01:01 (Homo sapiens, UniProt P04439, A114D/A174V/A182V/D101N/D185E/E176A/E190D/L180R/Q94H/R68K/S129P/T187R/V100A/V91M/W191G)
experimentalDetails: MHC binding assay: UV-ligand exchange, ELISA of stabilized MHC complexes (peptide exchange yield)
testParameters: binding to HLA-A*01:01, UV-ligand exchange
Description: Candidate peptides for T cell based therapies according to the present invention were further tested for their MHC binding capacity (affinity). The individual peptide-MHC complexes were produced by UV-ligand exchange, where a UV-sensitive peptide is cleaved upon UV-irradiation and exchanged with the peptide of interest as analyzed. Only peptide candidates that can effectively bind and stabilize the peptide-receptive MHC molecules prevent dissociation of the MHC complexes. […]
endpointLabel: Peptide exchange

substance | Peptide exchange
279 (LMTVLLKY; listed as Homo sapiens) [compound 279] | +++ (>50 = +++)
261 (MTEGSTVNTEY; listed as Homo sapiens) [compound 261] | ++++ (>75% = ++++)
170 (VQIAKGMNY; listed as Homo sapiens) [compound 170] | +++ (>50 = +++)
151 (YEVDTKLLSL; listed as Homo sapiens) [compound 151] | ++ (>20% = ++)
29 (TLEDLDNLYNY; listed as Homo sapiens) [compound 29] | +++ (>50 = +++)

Sample 189 (FRGVFVHRY; listed as Homo sapiens) [compound 189] ; Peptide exchange observed: ++ (>20% = ++)

* * *

studyTarget: HLA-A*01:01 (Homo sapiens, UniProt P04439, A114D/A174V/A182V/D101N/D185E/E176A/E190D/L180R/Q94H/R68K/S129P/T187R/V100A/V91M/W191G)
experimentalDetails: MHC binding assay: UV-ligand exchange, ELISA of stabilized MHC complexes (peptide exchange yield)
testParameters: binding to HLA-A*01:01, UV-ligand exchange
endpointLabel: Peptide exchange

Solved entries:
substance | Peptide exchange
194 (CYTADNEMGY; listed as Homo sapiens) [compound 194] | +++ (>50 = +++)
218 (FTAQLQLY; listed as Homo sapiens) [compound 218] | +++ (>50 = +++)
330 (EGELSEGEHWY; listed as Homo sapiens) [compound 330] | +++ (>50 = +++)
260 (KPTEDSANVY; listed as Homo sapiens) [compound 260] | +++ (>50 = +++)
26 (ASDDFRSKY; listed as Homo sapiens) [compound 26] | +++ (>50 = +++)
273 (CGPNEINHFY; listed as Homo sapiens) [compound 273] | ++ (>20% = ++)
278 (AATVKSDIY; listed as Homo sapiens) [compound 278] | ++ (>20% = ++)
187 (TQKSVQVLAY; listed as Homo sapiens) [compound 187] | ++ (>20% = ++)

Sample 52 (TTQDELLVY; listed as Homo sapiens) [compound 52] ; Peptide exchange observed: +++ (>50 = +++)

Sample 369 (AVMEAAFVY; listed as Homo sapiens) [compound 369] ; Peptide exchange observed: +++ (>50 = +++)

Sample 268 (AILHHLYFY; listed as Homo sapiens) [compound 268] ; Peptide exchange observed: + (>10% =+)

Sample 232 (RYLNIVHATQLY; listed as Homo sapiens) [compound 232] ; Peptide exchange observed: ++ (>20% = ++)

Sample 368 (ESAATGQLDY; listed as Homo sapiens) [compound 368] ; Peptide exchange observed: +++ (>50 = +++)

Sample 326 (STSRLTLFS; listed as Homo sapiens) [compound 326] ; Peptide exchange observed: ++ (>20% = ++)

Sample 240 (EVLDSLLAQY; listed as Homo sapiens) [compound 240] ; Peptide exchange observed: ++ (>20% = ++)

Sample 375 (ASSLDSLHY; listed as Homo sapiens) [compound 375] ; Peptide exchange observed: ++++ (>75% = ++++)

Sample 124 (FLKVTGYDKDDY; listed as Homo sapiens) [compound 124] ; Peptide exchange observed: ++ (>20% = ++)

* * *

studyTarget: HLA-A*01:01 (Homo sapiens, UniProt P04439, A114D/A174V/A182V/D101N/D185E/E176A/E190D/L180R/Q94H/R68K/S129P/T187R/V100A/V91M/W191G)
experimentalDetails: MHC binding assay: UV-ligand exchange, ELISA of stabilized MHC complexes (peptide exchange yield)
testParameters: binding to HLA-A*01:01, UV-ligand exchange
endpointLabel: Peptide exchange

Solved entries:
substance | Peptide exchange
334 (PSSMPECLSY; listed as Homo sapiens) [compound 334] | ++++ (>75% = ++++)
16 (NSDISIPEY; listed as Homo sapiens) [compound 16] | +++ (>50 = +++)
76 (QTDVERIKDTY; listed as Homo sapiens) [compound 76] | +++ (>50 = +++)
392 (TQHFVQENY; listed as Homo sapiens) [compound 392] | ++ (>20% = ++)

Sample 63 (TSEISQNALMY; listed as Homo sapiens) [compound 63] ; Peptide exchange observed: ++++ (>75% = ++++)

Sample 36 (MTSTEQSLY; listed as Homo sapiens) [compound 36] ; Peptide exchange observed: +++ (>50 = +++)

Sample 292 (VLDFAPPGASAY; listed as Homo sapiens) [compound 292] ; Peptide exchange observed: ++++ (>75% = ++++)

* * *

studyTarget: HLA-A*01:01 (Homo sapiens, UniProt P04439, A114D/A174V/A182V/D101N/D185E/E176A/E190D/L180R/Q94H/R68K/S129P/T187R/V100A/V91M/W191G)
experimentalDetails: MHC binding assay: UV-ligand exchange, ELISA of stabilized MHC complexes (peptide exchange yield)
testParameters: binding to HLA-A*01:01, UV-ligand exchange

substance | Peptide exchange
175 (GLEYEAPKLY; listed as Homo sapiens) [compound 175] | ++ (>20% = ++)
192 (LAFYYGMY; listed as Homo sapiens) [compound 192] | ++ (>20% = ++)
381 (ETSFSTSHY; listed as Homo sapiens) [compound 381] | ++++ (>75% = ++++)
367 (LTDTGYLQLY; listed as Homo sapiens) [compound 367] | ++++ (>75% = ++++)

* * *

studyTarget: HLA-A*01:01 (Homo sapiens, UniProt P04439, A114D/A174V/A182V/D101N/D185E/E176A/E190D/L180R/Q94H/R68K/S129P/T187R/V100A/V91M/W191G)
experimentalDetails: MHC binding assay: UV-ligand exchange, ELISA of stabilized MHC complexes (peptide exchange yield)
testParameters: binding to HLA-A*01:01, UV-ligand exchange

substance | Peptide exchange
145 (LSDAVHVEF; listed as Homo sapiens) [compound 145] | +++ (>50 = +++)
230 (CVIETFHKY; listed as Homo sapiens) [compound 230] | +++ (>50 = +++)

* * *

studyTarget: HLA-A*01:01 (Homo sapiens, UniProt P04439, A114D/A174V/A182V/D101N/D185E/E176A/E190D/L180R/Q94H/R68K/S129P/T187R/V100A/V91M/W191G)
experimentalDetails: MHC binding assay: UV-ligand exchange, ELISA of stabilized MHC complexes (peptide exchange yield)
testParameters: binding to HLA-A*01:01, UV-ligand exchange
endpointLabel: Peptide exchange

substance | assayResult
171 (ITDFGLAKL; listed as Homo sapiens) [compound 171] | ++ (>20% = ++)
393 (QVWGGQPVY; listed as Homo sapiens) [compound 393] | + (>10% =+)
226 (QITPKHNGLY; listed as Homo sapiens) [compound 226] | ++ (>20% = ++)
325 (LQKPVLPLY; listed as Homo sapiens) [compound 325] | ++ (>20% = ++)
22 (VMDTLGLFY; listed as Homo sapiens) [compound 22] | ++++ (>75% = ++++)

Sample 270 (DLKIDLAAQY; listed as Homo sapiens) [compound 270] ; Peptide exchange observed: ++ (>20% = ++)

Sample 389 (YYDLVESTF; listed as Homo sapiens) [compound 389] ; Peptide exchange observed: + (>10% =+)

Sample 12 (YTDFVGEGLY; listed as Homo sapiens) [compound 12] ; Peptide exchange observed: +++ (>50 = +++)

* * *

studyTarget: HLA-A*01:01 (Homo sapiens, UniProt P04439, A114D/A174V/A182V/D101N/D185E/E176A/E190D/L180R/Q94H/R68K/S129P/T187R/V100A/V91M/W191G)
experimentalDetails: MHC binding assay: UV-ligand exchange, ELISA of stabilized MHC complexes (peptide exchange yield)
testParameters: binding to HLA-A*01:01, UV-ligand exchange
endpointLabel: Peptide exchange

substance | Peptide exchange
56 (VTEYAEEIYQY; listed as Homo sapiens) [compound 56] | +++ (>50 = +++)
290 (GQFTGTAGACRY; listed as Homo sapiens) [compound 290] | ++ (>20% = ++)
236 (VLDSLLAQY; listed as Homo sapiens) [compound 236] | ++++ (>75% = ++++)
106 (EVVEGKEWGSFY; listed as Homo sapiens) [compound 106] | +++ (>50 = +++)
62 (VSELVTTGHY; listed as Homo sapiens) [compound 62] | +++ (>50 = +++)

Sample 202 (QTDINGGSLK; listed as Homo sapiens) [compound 202] ; Peptide exchange observed: +++ (>50 = +++)

Sample 125 (FQYELRELY; listed as Homo sapiens) [compound 125] ; Peptide exchange observed: ++++ (>75% = ++++)

Sample 317 (EDLLEVLDMY; listed as Homo sapiens) [compound 317] ; Peptide exchange observed: ++ (>20% = ++)

Sample 228 (KSFDDIAKY; listed as Homo sapiens) [compound 228] ; Peptide exchange observed: ++ (>20% = ++)

Origin of measurements: patent US12195506B2
